# method-description: Pharmacokinetics in whole blood, CD-1 mice
# measurement-conditions: male, CD-1, mouse, in vivo, 100 mg/kg, Mean Conc., blood; fosmetpantotenate 100 mg/kg PO; 2 hr
metric: concentration at 2 h (nM)
Numbers only here, please. The scale is nM.

Which value of concentration at 2 h has been reported for COC(=O)CCNC(=O)[C@H](O)C(C)(C)COP(=O)(N[C@@H](C)C(=O)OC)Oc1ccccc1 (mixture of isomers) [Fosmetpantotenate] in the records? 2.97

---

# method-description: Pharmacokinetics in whole blood, CD-1 mice
# measurement-conditions: male, CD-1, mouse, in vivo, 300 mg/kg, Mean Conc., blood; fosmetpantotenate 300 mg/kg PO; 4 hr
metric: concentration at 4 h
Just the number plus its unit, please.

Requested read-out: concentration at 4 h. Entry: COC(=O)CCNC(=O)[C@H](O)C(C)(C)COP(=O)(N[C@@H](C)C(=O)OC)Oc1ccccc1 (mixture of isomers) [Fosmetpantotenate] 1.03 nM

---

# method-description: Pharmacokinetics in whole blood, Sprague-Dawley rats
# measurement-conditions: male, Sprague-Dawley, rat, in vivo, 700 mg/kg, Fosmetpantotenate Mean Conc., male Sprague-Dawley rats, fosmetpantotenate 700 mg/kg oral, blood, 0.33 hr, mean, BQL <1.26 nM
metric: concentration at 0.33 hr (nM)
Express it in nM; write the number only.

Could you share which concentration at 0.33 hr value was measured for COC(=O)CCNC(=O)[C@H](O)C(C)(C)COP(=O)(N[C@@H](C)C(=O)OC)Oc1ccccc1 (mixture of isomers) [Fosmetpantotenate] ? 1290

---

# method-description: Pharmacokinetics in whole blood, CD-1 mice
# measurement-conditions: male, CD-1, mouse, whole blood, po, 700 mg/kg, Whole Blood Conc. of compound 2, CD-1 mice, single 700 mg/kg RE-024-02 PO, 1 hr, LLOQ 10.2 nM
metric: concentration at 1 h (nM)
Express the result in nM but write the number alone.

Report concentration at 1 h for `COC(=O)CCNC(=O)[C@@H]1OP(=O)(O)OCC1(C)C` please. 1830

---

# method-description: Pharmacokinetics in whole blood, Sprague-Dawley rats
# measurement-conditions: male, Sprague-Dawley, rat, in vivo, 700 mg/kg, Fosmetpantotenate Mean Conc., male Sprague-Dawley rats, fosmetpantotenate 700 mg/kg oral, blood, 0.083 hr, mean, BQL <1.26 nM
metric: concentration at 0.083 h

Quick one: concentration at 0.083 h of COC(=O)CCNC(=O)[C@H](O)C(C)(C)COP(=O)(N[C@@H](C)C(=O)OC)Oc1ccccc1 (mixture of isomers) [Fosmetpantotenate] ? 0.26 µM

---

# method-description: in vivo
# measurement-conditions: male, CD-1, mouse, po, 100 mg/kg
metric: Cmax (nM)
Give just the numeric value; nM need not be written.

Would you mind telling me what Cmax value was observed for CC(C)(CO)[C@@H](O)C(=O)NCCC(=O)O [PA, pantothenate] ? 683

---

# method-description: in vivo
# measurement-conditions: male, CD-1, mouse, po, 700 mg/kg
metric: Cmax (nM)
Give your result in nM as a bare value.

Can you share its Cmax? I mean this molecule: CC(C)(CO)[C@@H](O)C(=O)NCCC(=O)O [PA, pantothenate] 1610

---

# method-description: Pharmacokinetics in whole blood, CD-1 mice
# measurement-conditions: male, CD-1, mouse, whole blood, po, 100 mg/kg, Whole Blood Conc. of compound 2, CD-1 mice, single 100 mg/kg RE-024-02 PO, 2 hr, LLOQ 10.2 nM
metric: concentration at 2 h (nM)
Quick note: give the figure in nM, leave out the unit.

Field request: concentration at 2 h | item: `COC(=O)CCNC(=O)[C@@H]1OP(=O)(O)OCC1(C)C` 17.3

---

# method-description: in vivo
# measurement-conditions: cynomolgus monkey, po, 300 mg/kg
metric: Cmax (nM)
Hi! Could you send only the number? It should be in nM, unit omitted.

May I ask what Cmax has been recorded for CC(C)(CO)[C@@H](O)C(=O)NCCC(=O)O [PA, pantothenate] ? 589

---

# method-description: Pharmacokinetics in whole blood, CD-1 mice
# measurement-conditions: male, CD-1, mouse, in vivo, po, 100 mg/kg, Compound 1 Whole Blood Conc., CD-1 mice, 100 mg/kg RE-024-02 by PO, 0.083 hr, individual animals, LLOQ 1.6 nM
metric: concentration at 0.083 hr (nM)
Give the value in nM but do not write nM after it.

concentration at 0.083 hr for COC(=O)CCNC(=O)[C@@H]1OP(=O)(N[C@@H](C)C(=O)OC)OCC1(C)C (stereo partly shown) [Compound 1] ? 3.8

---

# method-description: Pharmacokinetics in whole blood, Sprague-Dawley rats
# measurement-conditions: male, Sprague-Dawley, rat, whole blood, po, 700 mg/kg, Whole Blood Conc. of compound 2, Sprague-Dawley rats, single 700 mg/kg RE-024-02 PO, time 0.5, LLOQ 3 ng/mL
metric: concentration at 0.5 h (ng/mL)
Number only, in ng/mL; omit the unit.

// query concentration at 0.5 h value for entry `COC(=O)CCNC(=O)[C@@H]1OP(=O)(O)OCC1(C)C` 452

---

# method-description: Pharmacokinetics in whole blood, CD-1 mice
# measurement-conditions: male, CD-1, mouse, in vivo, 100 mg/kg, Conc., blood; fosmetpantotenate 100 mg/kg PO; 0.5 hr; individual animals
metric: concentration at 0.5 h (nM)
# unit: nM | format: bare number

Fill blank: measured concentration at 0.5 h of the compound COC(=O)CCNC(=O)[C@H](O)C(C)(C)COP(=O)(N[C@@H](C)C(=O)OC)Oc1ccccc1 (mixture of isomers) [Fosmetpantotenate] is ____. 1.35

---

# method-description: Metabolic stability in mouse whole blood
# Format: in vitro ADME
# measurement-conditions: mouse blood, 5 μM, 37°C, 60 min
metric: half-life at 5 μM

Can you share its half-life at 5 μM? I mean this compound: COC(=O)CCNC(=O)[C@H](O)C(C)(C)COP(=O)(N[C@@H](C)C(=O)OC)Oc1ccccc1 (mixture of isomers) [Fosmetpantotenate] < 5 min

---

# method-description: Pharmacokinetics in whole blood, Sprague-Dawley rats
# measurement-conditions: male, Sprague-Dawley, rat, whole blood, po, 700 mg/kg, Whole Blood Conc. of compound 2, Sprague-Dawley rats, single 700 mg/kg RE-024-02 PO, time 2, LLOQ 10.2 nM
metric: concentration at 2 h (nM)
# value in nM; strip the unit string

For the compound shown here, `COC(=O)CCNC(=O)[C@@H]1OP(=O)(O)OCC1(C)C` , give the reported concentration at 2 h. 356

---

# method-description: Pharmacokinetics in whole blood, cynomolgus monkeys
# measurement-conditions: cynomolgus monkey, whole blood, po, 300 mg/kg, Concentration of compound 2 in whole blood, cynomolgus monkeys, single oral 300 mg/kg fosmetpantotenate, 8 hr, LLOQ 2.03 nM
metric: concentration at 8 h (nM)
Provide the reading as a plain figure in nM.

Suppose we examine the compound `COC(=O)CCNC(=O)[C@@H]1OP(=O)(O)OCC1(C)C` ; what concentration at 8 h value has been reported? 1150

---

# method-description: Pharmacokinetics in whole blood, Sprague-Dawley rats
# measurement-conditions: male, Sprague-Dawley, rat, in vivo, 300 mg/kg, Fosmetpantotenate Mean Conc., male Sprague-Dawley rats, fosmetpantotenate 300 mg/kg oral, blood, 4 hr, mean, BQL <1.26 nM
metric: concentration at 4 h
Just so you know, I need the unit written after the number.

I have this compound here, COC(=O)CCNC(=O)[C@H](O)C(C)(C)COP(=O)(N[C@@H](C)C(=O)OC)Oc1ccccc1 (mixture of isomers) [Fosmetpantotenate] , and I need its recorded concentration at 4 h. 3.69 nM

---

# method-description: In vitro blood-brain barrier permeability (PBEC/rat astrocyte co-culture)
# measurement-conditions: pH 7.4, In Vitro Measured Papp, mean ± SD (n = 3)
metric: Papp at 1 h (nm/s)
All answers are understood in nm/s, so give the number only.

Value lookup for Papp at 1 h; key = `C=CCN1CC[C@]23c4c5ccc(O)c4O[C@H]2C(=O)CC[C@@]3(O)[C@H]1C5` 423

---

# method-description: Pharmacokinetics in whole blood, CD-1 mice
# measurement-conditions: male, CD-1, mouse, in vivo, 300 mg/kg, Mean Conc., blood; fosmetpantotenate 300 mg/kg PO; 1 hr
metric: concentration at 1 h (nM)
Expressed in nM, but write only the number.

Quick one: concentration at 1 h of COC(=O)CCNC(=O)[C@H](O)C(C)(C)COP(=O)(N[C@@H](C)C(=O)OC)Oc1ccccc1 (mixture of isomers) [Fosmetpantotenate] ? 1.14

---

# method-description: Pharmacokinetics in whole blood, Sprague-Dawley rats
# measurement-conditions: Sprague-Dawley, rat, in vivo, po, 300 mg/kg, Whole Blood Conc. of compound 1, Sprague-Dawley rats, single 300 mg/kg RE-024-02 PO, time 0.33, LLOQ 1.58 nM
metric: concentration at 0.33 h (nM)
Express it in nM; write the number only.

Query: concentration at 0.33 h; subject: COC(=O)CCNC(=O)[C@@H]1OP(=O)(N[C@@H](C)C(=O)OC)OCC1(C)C (stereo partly shown) [Compound 1] 59.3
